- ASSAY INFO: Luciferase activity of purified RLuc mutants (light output integrated over 10 s, luminometer)
- Type: biochemical
- CONDITIONS: bisdeoxycoelenterazine; relative to native enzyme
READOUT TYPE: Activity (relative to RLuc) bdc
Give bare numbers.

MOLECULE	Activity (relative to RLuc) bdc
C124A/S257G: RLuc mutant C124A/S257G (protein) MASKVYDPEQRKRMITGPQWWARCKQMNVLDSFINYYDSEKHAENAVIFLHGNAASSYLWRHVVPHIEPVARCIIPDLIGMGKSGKSGNGSYRLLDHYKYLTAWFELLNLPKKIIFVGHDWGAALAFHYSYEHQDKIKAIVHAESVVDVIESWDEWPDIEEDIALIKSEEGEKMVLENNFFVETMLPSKIMRKLEPEEFAAYLEPFKEKGEVRRPTLSWPREIPLVKGGKPDVVQIVRNYNAYLRASDDLPKMFIEGDPGFFSNAIVEGAKKFPNTEFVKVKGLHFSQEDAPDEMGKYIKSFVERVLKNEQ	3.0
C124A/Q235A: RLuc mutant C124A/Q235A (protein) MASKVYDPEQRKRMITGPQWWARCKQMNVLDSFINYYDSEKHAENAVIFLHGNAASSYLWRHVVPHIEPVARCIIPDLIGMGKSGKSGNGSYRLLDHYKYLTAWFELLNLPKKIIFVGHDWGAALAFHYSYEHQDKIKAIVHAESVVDVIESWDEWPDIEEDIALIKSEEGEKMVLENNFFVETMLPSKIMRKLEPEEFAAYLEPFKEKGEVRRPTLSWPREIPLVKGGKPDVVAIVRNYNAYLRASDDLPKMFIESDPGFFSNAIVEGAKKFPNTEFVKVKGLHFSQEDAPDEMGKYIKSFVERVLKNEQ	1.2
C124A/F199M: RLuc mutant C124A/F199M (protein) MASKVYDPEQRKRMITGPQWWARCKQMNVLDSFINYYDSEKHAENAVIFLHGNAASSYLWRHVVPHIEPVARCIIPDLIGMGKSGKSGNGSYRLLDHYKYLTAWFELLNLPKKIIFVGHDWGAALAFHYSYEHQDKIKAIVHAESVVDVIESWDEWPDIEEDIALIKSEEGEKMVLENNFFVETMLPSKIMRKLEPEEMAAYLEPFKEKGEVRRPTLSWPREIPLVKGGKPDVVQIVRNYNAYLRASDDLPKMFIESDPGFFSNAIVEGAKKFPNTEFVKVKGLHFSQEDAPDEMGKYIKSFVERVLKNEQ	0.46

Turning now to a further record.
Exam item: # input molecule: C124A/M191L: RLuc mutant C124A/M191L (protein) MASKVYDPEQRKRMITGPQWWARCKQMNVLDSFINYYDSEKHAENAVIFLHGNAASSYLWRHVVPHIEPVARCIIPDLIGMGKSGKSGNGSYRLLDHYKYLTAWFELLNLPKKIIFVGHDWGAALAFHYSYEHQDKIKAIVHAESVVDVIESWDEWPDIEEDIALIKSEEGEKMVLENNFFVETMLPSKILRKLEPEEFAAYLEPFKEKGEVRRPTLSWPREIPLVKGGKPDVVQIVRNYNAYLRASDDLPKMFIESDPGFFSNAIVEGAKKFPNTEFVKVKGLHFSQEDAPDEMGKYIKSFVERVLKNEQ ; wanted: its Activity (relative to RLuc) bdc
Marked response: 1.2
